Data origin, for the record: patent US20040254162A1

Exercise: state measured G.M. for each of the molecules provided.
- Test system: Mycobacterium avium intracellulare
- test.method.notes: Agar dilution method, mycobacteria
- Type: cell-based
- test.parameters: geometric mean MIC
Answers are plain numbers, in µg/mL.

Some entries whose results are on file:
**Query** Return G.M. for the following molecule: NNC(=O)c1ccncc1 [Isoniazid]
**Result** 18.149

**Query** Return G.M. for the following molecule: CC[C@H]1OC(=O)[C@H](C)[C@@H](O[C@H]2C[C@@](C)(OC)[C@@H](O)[C@H](C)O2)[C@H](C)[C@@H](O[C@@H]2O[C@H](C)C[C@H](N(C)C)[C@H]2O)[C@](C)(OC)C[C@@H](C)C(=O)[C@H](C)[C@@H](O)[C@]1(C)O [Clarithromycin]
**Result** 1.554

**Query** Return G.M. for the following molecule: CC(=O)NC[C@H]1CN(c2ccc(N3CCN(Cc4ccc([N+](=O)[O-])o4)CC3)c(F)c2)C(=O)O1.Cl [Compound No. 16]
**Result** 8.52

---
**Query** Return G.M. for the following molecule: C[C@@H]1CN(c2c(F)c(N)c3c(=O)c(C(=O)O)cn(C4CC4)c3c2F)C[C@H](C)N1 [Sparfloxacin]
**Result** 3.526

###

- Test system: Mycobacterium tuberculosis
- test.method.notes: microbe, parasite or virus in culture
- test.parameters: 504 h
parameter: MIC90
Note: a bare number is incomplete; add the unit.

Some entries whose results are on file:
**Query** State recorded MIC90 with Mycobacterium tuberculosis, entry `CC[C@H]1OC(=O)[C@H](C)[C@@H](O[C@H]2C[C@@](C)(OC)[C@@H](O)[C@H](C)O2)[C@H](C)[C@@H](O[C@@H]2O[C@H](C)C[C@H](N(C)C)[C@H]2O)[C@](C)(OC)C[C@@H](C)C(=O)[C@H](C)[C@@H](O)[C@]1(C)O` , no comment.
**Result** 32 µg/mL

**Query** State recorded MIC90 with Mycobacterium tuberculosis, entry `C[C@@H]1CN(c2c(F)c(N)c3c(=O)c(C(=O)O)cn(C4CC4)c3c2F)C[C@H](C)N1` , no comment.
**Result** 2 µg/mL

Report MIC90 for every entry below.
1. NNC(=O)c1ccncc1
2. CO[C@H]1/C=C/O[C@@]2(C)Oc3c(C)c(O)c4c(O)c(c(/C=N/N5CCN(C)CC5)c(O)c4c3C2=O)NC(=O)/C(C)=C\C=C\[C@H](C)[C@H](O)[C@@H](C)[C@@H](O)[C@@H](C)[C@H](OC(C)=O)[C@@H]1C
3. CC(=O)NC[C@H]1CN(c2ccc(N3CCOCC3)c(F)c2)C(=O)O1

**Result**
["64 µg/mL", "64 µg/mL", "64 µg/mL"]

###

- Test system: MRSA 562
- test.method.notes: In vivo activity against MRSA 562 (ED50)
- Parameters: species or system Methicillin Resistant Staphylococcus aureus
- test.parameters: PO; MRSA 562 infection
parameter: ED50 (mg/kg body weight) PO

**Query** State recorded ED50 (mg/kg body weight) PO with MRSA 562, entry CC(=O)NC[C@H]1CN(c2ccc(N3CCN(Cc4ccc([N+](=O)[O-])o4)CC3)c(F)c2)C(=O)O1 [Compound No. 15] , no comment.
**Result** 4.33 mg/kg body weight

**Query** State recorded ED50 (mg/kg body weight) PO with MRSA 562, entry CC(=O)NC[C@H]1CN(c2ccc(N3CCN(Cc4ccc(NC=O)o4)CC3)c(F)c2)C(=O)O1 [Compound No. 67] , no comment.
**Result** >25 mg/kg body weight

**Query** State recorded ED50 (mg/kg body weight) PO with MRSA 562, entry CC(=O)NC[C@H]1CN(c2ccc(N3CC4C(C3)C4N(C)C(=O)Cc3cccs3)c(F)c2)C(=O)O1 (stereo partly shown) [Compound No. 71] , no comment.
**Result** >25 mg/kg body weight

**Query** State recorded ED50 (mg/kg body weight) PO with MRSA 562, entry CC(=O)NC[C@H]1CN(c2ccc(N3CCOCC3)c(F)c2)C(=O)O1 [Linezolid] , no comment.
**Result** 4.56 mg/kg body weight

**Query** State recorded ED50 (mg/kg body weight) PO with MRSA 562, entry CC(=O)NC[C@H]1CN(c2ccc(N3CCN(C(=O)c4ccc([N+](=O)[O-])s4)CC3)c(F)c2)C(=O)O1.Cl [Compound No. 29] , no comment.
**Result** >25 mg/kg body weight

**Query** State recorded ED50 (mg/kg body weight) PO with MRSA 562, entry CC(=O)NC[C@H]1CN(c2ccc(N3CCN(C(=O)c4ccc([N+](=O)[O-])o4)CC3)c(F)c2)C(=O)O1 [Compound No. 06] , no comment.
**Result** >25 mg/kg body weight

Proceeding to the next compound to report its ED50 (mg/kg body weight) PO.
**Query** State recorded ED50 (mg/kg body weight) PO with MRSA 562, entry CC(=O)NC[C@H]1CN(c2ccc(N3CCN(C(=O)C(=O)c4cccs4)CC3)c(F)c2)C(=O)O1 [Compound No. 07] , no comment.
**Result** >25 mg/kg body weight
